# Method Summary: Drug repurposing screens with cells derived from glioblastoma tumor samples (AID 1345199); also: nearly all actives have a fitted effect of over 40% in size; also: potency is read from the fitted curve at half-maximal effect
# Condition: GBM patient neurospheres viability, ATP luminescence, 48 h; tumour line D
Inconclusive results are not listed. Active and inactive are the calls of the source. Calls follow the shape of the dose curve; as a rule, active = well fitted inhibition curve with a large enough effect; inconclusive = small, poorly fitted or top-dose-only effect; inactive = flat fitted curve, though single readings scatter.
# Potency values compiled below

Take a look at these entries with their results.
// `CC(C)N1CCN(c2ccc(OC[C@H]3CO[C@](Cn4cncn4)(c4ccc(Cl)cc4Cl)O3)cc2)CC1` : Potency value = 10 µM (active)

// `CCCCC(=O)O[C@H]1CC[C@H]2[C@@H]3CCc4cc(O)ccc4[C@H]3CC[C@]12C` : Potency value = 11.2 µM (active)

Turning now to a further compound:
// `CO[C@H]1C[C@H](O[C@@H]2/C(C)=C/C[C@@H]3C[C@@H](C[C@]4(CC[C@H](C)[C@@H](C5CCCCC5)O4)O3)OC(=O)[C@@H]3C=C(C)/C(=N/O)[C@H]4OC/C(=C\C=C\[C@@H]2C)[C@]43O)O[C@@H](C)[C@@H]1O` : Potency value = 20 µM (active)

* * *

# Method Summary: Cell Viability - LYMP2-012 (AID 982);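 also: cellular ATP by luciferase luminescence where a drop means cytotoxicity; cells exposed to compound for one day before reading; 0% = DMSO only and full loss = 92 µM tetraoctylammonium bromide; nearly all actives have a fitted effect of over 55% in size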
# Condition: LYMP2-012 lymphoblastoid cell viability qHTS; series mostly up to 92.2 µM
# From the text: NIH Chemical Genomics Center [NCGC] NIH Molecular Libraries Screening Centers Network [MLSCN] National Institutes of Environmental Health Sciences [NIEHS] National Toxicology Program [NTP] We have developed a 1536-well cell-based assay for quantitative high throughput screening (qHTS) against a number of cell lines to determine in vitro cytotoxicity of small molecules. […] 8. Detection; Luminescence; Viewlux plate reader […]
Results filed as inconclusive are left out. Calls of active or inactive are those of the source. Calls follow the shape of the dose curve; as a rule, active = well fitted cell-killing curve with a large enough effect; inconclusive = small, poorly fitted or top-dose-only effect; inactive = flat fitted curve, though single readings scatter.
Select the correct class. Options are label 1 for active, label 0 for inactive and nothing else.

Some entries whose results are on file:
Identify the outcome logged in this assay for the compound shown: `CCCCC`
label 0

Identify the outcome logged in this assay for the compound shown: `CO`
label 0

More entries:
Identify the outcome logged in this assay for the compound shown: CC1=CCC2CC1C2(C)C (configuration not stated)
label 0

Identify the outcome logged in this assay for the compound shown: `Cc1ccc(S(=O)(=O)O)cc1C`
label 0

Identify the outcome logged in this assay for the compound shown: `OCl`
label 0

Identify the outcome logged in this assay for the compound shown: `c1ccc2ccccc2c1`
label 0

Identify the outcome logged in this assay for the compound shown: `COC(=O)c1ccccc1O`
label 0

* * *

# Method Summary: Drug repurposing screens with cells derived from glioblastoma tumor samples (AID 1345199); also: nearly all actives have a fitted effect of over 40% in size; as to activity, negative = cell killing: % is scaled to controls: 0 for no effect and ±100 for the full control effect
# Condition: GBM patient neurospheres viability, ATP luminescence, 48 h; at 46.1 µM (top of the series); tumour line C
Results filed as inconclusive are left out. Where a SMILES comes first, the peptide text is derived from it. Bridges are numbered along the chain shown (N, C = ends). [ ]: non-standard residue; d: D form. The star is where a group is joined. ξ: configuration not given here. d(aThr) = C[C@@H](O)[C@@H](N)C(=O)O; ξThr(3R) = C[C@@H](O)C(N)C(=O)O; X3 = CC[C@@H](C)CCCCC(=O)*; dDab = NCC[C@@H](N)C(=O)O
Recorded Metric: activity, negative = cell killing (%)
Number only, in %; omit the unit.

Take a look at these entries with their results.
// `[O]=[Bi][O]C(=O)[O][Bi]=[O]` : activity, negative = cell killing value = 0.454

// `O=C(O)COc1ccccc1/C=N/NC(=O)c1ccncc1` : activity, negative = cell killing value = -10.4

// `NC(N)=O` : activity, negative = cell killing value = 7.05

// CC[C@@H](C)CCCCC(=O)N[C@H](CCN)C(=O)N[C@@H](C(=O)N[C@H](CCN)C(=O)N[C@@H]1CCNC(=O)C([C@@H](C)O)NC(=O)[C@@H](CCN)NC(=O)[C@@H](CCN)NC(=O)[C@@H](CC(C)C)NC(=O)[C@@H](Cc2ccccc2)NC(=O)[C@@H](CCN)NC1=O)[C@@H](C)O (stereo partly drawn) (X3-[dDab][d(aThr)][dDab][dDab][dDab][dF][dL][dDab][dDab][ξThr(3R)]; lactam 4-C) : activity, negative = cell killing value = 4.35

Turning now to a further molecule:
// `CS(=O)(=O)c1ccc([C@@H](O)[C@@H](COC(=O)CN)NC(=O)C(Cl)Cl)cc1` : activity, negative = cell killing value = -21.6
